organism: Rattus norvegicus; test: Open TG-GATES - Regimen: Daily Repeat; type: toxicity, organism-based, Sprague-Dawley; parameters: regimen Daily Repeat, gender Male, age 6 weeks; details: in vivo, po, 0 mg/kg, […], tissue Plasma, route gavage, dose level Control, time 7 day
Classification field: enter y for GLC values not below 200 mg/dL, n for values below it.

Illustrative cases are given below, each with its answer.
Check this molecule for GLC at or above 200 mg/dL: CN(CCOc1ccc(CC2SC(=O)NC2=O)cc1)c1ccccn1.O=C(O)/C=C\C(=O)O (configuration not stated) [ROSIGLITAZONE MALEATE]
n

// inclusive: GLC at least 200 mg/dL? input: CCCCC1C(=O)N(c2ccccc2)N(c2ccccc2)C1=O
y

Check this molecule for GLC at or above 200 mg/dL: CC(S)C(=O)NCC(=O)O (configuration not stated)
n

Now look at this entry.
Decide: is the reported value of GLC for CCCCNC(=O)NS(=O)(=O)c1ccc(C)cc1 [TOLBUTAMIDE] equal to or greater than 200 mg/dL?
n

---

species on record: Rattus norvegicus; assay: Open TG-GATES - Regimen: Single; assay type: toxicity, organism-based, Sprague-Dawley; design: regimen Single, gender Male, age 6 weeks; conditions: in vivo, po, 0 mg/kg, 24 h, tissue Liver, route gavage, dose level Control
Listed here: items and their measured LIVER.
A number alone suffices; assume g.

Example compounds with recorded LIVER:
Data point: CN(C/C=C/C#CC(C)(C)C)Cc1cccc2ccccc12 ; LIVER = 11.6

// field: LIVER; key: COc1ccc([C@@H]2Sc3ccccc3N(CCN(C)C)C(=O)[C@@H]2OC(C)=O)cc1 ; value = 8.9

Quick note, LIVER for Nc1ccc(Cc2ccc(N)cc2)cc1 landed at 9.5

What the record says about COc1cc2ncnc(Nc3ccc(F)c(Cl)c3)c2cc1OCCCN1CCOCC1 : LIVER is 10.6

Field LIVER (entry CC(=O)[C@@]1(O)CC[C@H]2[C@@H]3C=C(Cl)C4=CC(=O)CC[C@]4(C)[C@H]3CC[C@@]21C ) reads 11

Others:
Value of measured LIVER for the entry O=C(O)c1ccccc1Nc1ccccc1 : 9.7

// LIVER lookup, compound = O=c1ccc2ccccc2o1 , result: 9

Sure, the documented LIVER for CC(S)C(=O)NCC(=O)O (configuration not stated) is 10.1

// LIVER lookup, compound = CN(C)CCCN1c2ccccc2Sc2ccc(Cl)cc21 , result: 10.7

So for CN(CCOc1ccc(CC2SC(=O)NC2=O)cc1)c1ccccn1.O=C(O)/C=C\C(=O)O (configuration not stated) [ROSIGLITAZONE MALEATE] , the logged LIVER turned out to be 10.7

Short answer for CCO : LIVER was 10.4

Per the records, this compound ( CCCCNC(=O)NS(=O)(=O)c1ccc(C)cc1 [TOLBUTAMIDE] ) has LIVER equal to 10.3

---

organism: Rattus norvegicus; experiment: Open TG-GATES - Regimen: Daily Repeat; format: toxicity, organism-based, Sprague-Dawley; parameters: regimen Daily Repeat, gender Male, age 6 weeks; conditions: in vivo, po, 0 mg/kg, […], tissue Blood, route gavage, dose level Control, time 14 day
Reported RBC is given for each of the following compounds.
Write the answer as a number in x10_4/ul, unit excluded.

Here's what some known entries look like.
Recorded result, CC(=O)[C@@]1(O)CC[C@H]2[C@@H]3C=C(Cl)C4=CC(=O)CC[C@]4(C)[C@H]3CC[C@@]21C , RBC: 704

Form: compound = CCO ; RBC = 746.4

Please fill in: RBC reported for O=c1ccc2ccccc2o1 = 692.4

For reference, reported RBC for NS(=O)(=O)c1cc(C(=O)O)c(NCc2ccco2)cc1Cl [FUROSEMIDE] stands at 713.8

compound CCCCNC(=O)NS(=O)(=O)c1ccc(C)cc1 [TOLBUTAMIDE] , RBC observed: 721.4

For O=C(O)c1ccccc1Nc1ccccc1 the compound record lists RBC as 714.8

Entry under test: Nc1ccc(Cc2ccc(N)cc2)cc1 . Its RBC was 661.2

The reported value for CC(S)C(=O)NCC(=O)O (stereo not given) in terms of RBC is 686.8

Next:
The compound CN(CCOc1ccc(CC2SC(=O)NC2=O)cc1)c1ccccn1.O=C(O)/C=C\C(=O)O (stereo not given) [ROSIGLITAZONE MALEATE] showed RBC equal to 680.2

GET /value?item= CCCCC1C(=O)N(c2ccccc2)N(c2ccccc2)C1=O &field=RBC returns 714.8
